test system: CD2F1 mice, L1210 leukemia ip, survival T/C; test: NCI In Vivo Anticancer Drug Screen. Data for tumor model L1210 Leukemia (intraperitoneal) in CD2F1 (CDF1) mice; details: endpoint: mean survival time; dose: 50.0 mg/kg/injection; schedule: Q01DX001 (ip); vehicle: Klucel (hydroxypropylcellulose) (HPC)
Toxic doses and inconclusive results are not listed. The calls were made as follows: active = survival T/C of 150% or more; inactive = T/C below 125% in these data.
Please answer using one outcome listed in active, inactive

CCC(C=O)(CC)CCC#N    inactive
CSc1nc(N)cc(=O)[nH]1    inactive
N/C(=N/N=C/c1ccco1)N[N+](=O)[O-]    inactive

Shifting focus to the molecule that follows.
Exercise: Hey, what did the test say about NC(=O)c1cc([N+](=O)[O-])ccc1NN=NCCCl ?
Key: active

====

system: CD2F1 mice, L1210 leukemia ip, survival T/C; test: NCI In Vivo Anticancer Drug Screen. Data for tumor model L1210 Leukemia (intraperitoneal) in CD2F1 (CDF1) mice; conditions: endpoint: mean survival time; dose: 100.0 mg/kg/injection; schedule: Q04DX003 (ip); vehicle: saline with Tween-80; higher = longer survival
Inconclusive results and toxic doses are left out.
quantity measured: T/C

OCCOc1ccc(Cl)cc1    96 % of control
Cc1cc(N/N=c2/c3ccccc3n(O)c3c2ccc2ccccc23)ccc1O    104 % of control
CC(=O)OC1(/N=[N+](/C)[O-])CCCC1    95 % of control
O=C1C=C(C2CCCCC2)C(=O)c2ccccc21    98 % of control
O=C(O)CCCC(=O)C1CCCCC1    95 % of control

# context switch: different compound, same T/C
Log: CD2F1 mice, L1210 leukemia ip, survival T/C, compound CC(C)N(C(=S)S)C(C)C , T/C = 101 % of control

====

system: CD2F1 mice, L1210 leukemia ip, survival T/C; assay: NCI In Vivo Anticancer Drug Screen. Data for tumor model L1210 Leukemia (intraperitoneal) in CD2F1 (CDF1) mice; details: endpoint: mean survival time; dose: 400.0 mg/kg/injection; schedule: Q01DX009 (ip); vehicle: saline; higher = longer survival
Inconclusive results and toxic doses are left out.
quantity measured: T/C

Log: CD2F1 mice, L1210 leukemia ip, survival T/C, compound NC(CSC(c1ccccc1)(c1ccccc1)c1ccc(-c2ccccc2)cc1)C(=O)O (stereo not drawn) , T/C = 100 % of control

Log: CD2F1 mice, L1210 leukemia ip, survival T/C, compound CC(C)(C)NC(=O)NCCCN1CCOCC1 , T/C = 91 % of control

Log: CD2F1 mice, L1210 leukemia ip, survival T/C, compound Nc1nc(N)c(N=O)c(N)n1 , T/C = 100 % of control

Log: CD2F1 mice, L1210 leukemia ip, survival T/C, compound C=C[Si](C)(C=C)C=C , T/C = 93 % of control

====

test system: CD2F1 mice, L1210 leukemia ip, survival T/C; experiment: NCI In Vivo Anticancer Drug Screen. Data for tumor model L1210 Leukemia (intraperitoneal) in CD2F1 (CDF1) mice; conditions: endpoint: mean survival time; dose: 25.0 mg/kg/injection; schedule: Q01DX005 (ip); vehicle: distilled water + Tween-80; higher = longer survival
Toxic doses and inconclusive results are not listed.
Here the recorded T/C is given for each entry.

CSc1nc(=O)n(C2OC(CO)C(O)C2O)nc1SCc1ccccc1 (configuration not stated)    94 % of control
Nc1ncnc2c1ncn2C1OC(C(N)C(=O)O)C(O)C1O (configuration not stated)    98 % of control
CCn1c(=O)c2nc(Cl)n(C3OCC(OC(C)=O)C(OC(C)=O)C3OC(C)=O)c2n(CC)c1=O (configuration not stated)    96 % of control
COc1ccc(Nc2nc(N)nc3c2ncn3C2OC(CO)C(O)C2O)cc1 (configuration not stated)    98 % of control

Consider C=Cc1ccc(NC(=O)CCn2cnc3c(N)ncnc32)cc1 . Its measured T/C is 102 % of control

Consider Nc1ncnc2c1c1cncnc1n2C1OC(CO)C(O)C1O (configuration not stated) . Its measured T/C is 98 % of control

Consider COP(=O)(O)OCC1OC(n2cnc3c(N)ncnc32)C(O)C1O (configuration not stated) . Its measured T/C is 102 % of control
